Let's look at some compounds and their measured ΔTm.
# ASSAYED SYSTEM: Mitogen-activated protein kinase 1 (Homo sapiens)
# COND: Compound concentration 20.0 uM, Protein concentration 2.0 uM, Result type QC Liability
# Description: Thermal Shift Assay. Domain: start/stop: M1-S360
Provide only the numeric value, understood in °C.

# GIVEN SMILES, ΔTm, °C
measured = [
    ("C[C@H](CCC(=O)O)[C@H]1CC[C@H]2[C@@H]3[C@H](O)C[C@@H]4C[C@H](O)CC[C@]4(C)[C@H]3C[C@H](O)[C@]12C", 0.4),
    ("Cn1c(C(=O)N[C@@H](CO)c2ccc(C(=O)O)cc2)cc2cc(Cl)ccc21", -0.04),
    ("CCn1c(-c2nonc2N)nc2cncc(C(=O)N3CC[C@H](N)C3)c21", 0.69),
    ("CN1CCCN(C(=O)c2cccc(-c3ccc(/C=C4/C(=O)Nc5ccc(Cl)cc54)o3)c2)CC1", -0.12),
]

Task: Answer with ΔTm of N#Cc1ccc(COc2ccc(Br)cc2CNCCO)cn1 measured for Mitogen-activated protein kinase 1 (Homo sapiens).
Output: 0.45

----------
# ASSAYED SYSTEM: Casein kinase I isoform delta (Homo sapiens) (UniProt P48730)
# Sequence (P48730 whole entry, looked up, canonical isoform): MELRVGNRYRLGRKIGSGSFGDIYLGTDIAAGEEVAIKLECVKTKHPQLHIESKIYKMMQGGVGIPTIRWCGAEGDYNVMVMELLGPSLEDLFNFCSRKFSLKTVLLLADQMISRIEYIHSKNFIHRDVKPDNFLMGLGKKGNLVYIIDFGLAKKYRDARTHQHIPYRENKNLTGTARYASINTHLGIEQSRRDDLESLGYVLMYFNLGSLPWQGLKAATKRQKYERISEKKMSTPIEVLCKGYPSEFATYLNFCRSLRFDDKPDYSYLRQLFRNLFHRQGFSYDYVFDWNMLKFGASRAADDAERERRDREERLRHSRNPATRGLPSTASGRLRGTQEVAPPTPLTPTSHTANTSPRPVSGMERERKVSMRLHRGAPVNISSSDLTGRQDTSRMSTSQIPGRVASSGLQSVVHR
# COND: Compound concentration 20.0 uM, Protein concentration 2.0 uM, Result type QC Liability
# Description: Thermal Shift Assay. Domain: start/stop: M1-K294
Let's look at some molecules and their measured ΔTm.
# do not omit the unit; it follows the number

Task: State its ΔTm: CCn1c(-c2nonc2N)nc2cncc(C(=O)N3CC[C@H](N)C3)c21
Output: 0.4 °C

Task: State its ΔTm: C=CC1C[C@]1(NC(=O)[C@@H]1C[C@@H](Oc2cc(-c3csc(NC(=O)C(C)C)n3)nc3c(Br)c(OC)ccc23)CN1C(=O)[C@@H](NC(=O)OC1CCCC1)C(C)(C)C)C(=O)O (some centres undefined)
Output: 0 °C

Task: State its ΔTm: CN(C)[C@H]1CCN(c2cc(C(F)(F)F)c(C#N)c(Nc3cccc(CCC(=O)O)c3)n2)C1
Output: 0.14 °C

Task: State its ΔTm: CCc1ccc(N(CC(C)C)S(=O)(=O)c2ccc(OCC3CCOCC3)c(CO)c2)cc1
Output: 0.71 °C

----------
# ASSAYED SYSTEM: Aurora kinase A (Homo sapiens) (UniProt O14965)
# Sequence (O14965 whole entry): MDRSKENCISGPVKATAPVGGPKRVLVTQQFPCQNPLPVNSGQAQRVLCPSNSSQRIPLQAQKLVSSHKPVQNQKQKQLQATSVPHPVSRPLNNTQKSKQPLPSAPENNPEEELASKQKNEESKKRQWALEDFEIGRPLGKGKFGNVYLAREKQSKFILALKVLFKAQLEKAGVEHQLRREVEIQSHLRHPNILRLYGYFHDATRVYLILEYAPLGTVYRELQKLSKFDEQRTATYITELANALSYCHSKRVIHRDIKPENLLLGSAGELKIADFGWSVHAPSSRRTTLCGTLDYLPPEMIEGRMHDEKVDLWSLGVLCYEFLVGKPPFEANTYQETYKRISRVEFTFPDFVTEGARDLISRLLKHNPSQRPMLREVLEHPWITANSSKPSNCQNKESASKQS
# COND: Compound concentration 20.0 uM, Protein concentration 2.0 uM, Result type QC Liability
# Description: Thermal Shift Assay. Domain: start/stop: E122-S403
Let's look at some compounds and their measured ΔTm.
Provide only the numeric value, understood in °C.

# GIVEN SMILES, MEASUREMENT LABEL, MEASURED RESULT
measured = [
    ("COc1cc(-c2cc3ncccc3c(OC[C@H]3CNC(=O)C3)n2)cc(OC)c1OC1CCOCC1", "ΔTm", 5.56),
    ("CCc1nc(-c2cccc(C)c2)c(-c2ccncc2)s1", "ΔTm", -0.09),
    ("CSc1ccc(C[C@@H](C)C(=O)O)cc1Nc1nc(N2CC[C@H](N(C)C)C2)cc(C(F)F)c1C#N", "ΔTm", 0.19),
    ("CC(C)(O)[C@H](F)CN1Cc2cc(NC(=O)c3cnn4cccnc34)c(N3CCOCC3)cc2C1=O", "ΔTm", 3.04),
    ("CC(=O)Oc1ccc2c(c1)[C@@]1(C)CCC[C@](C)(C(=O)OC(=O)[C@@]3(C)CCC[C@]4(C)c5cc(OC(C)=O)ccc5CC[C@@H]34)[C@@H]1CC2", "ΔTm", -1.32),
    ("CC(C)C[C@H](NC(=O)[C@@H](O)[C@H](N)Cc1ccccc1)C(=O)O", "ΔTm", -0.07),
    ("CN1C(=O)c2c(nn(Cc3ccc(-c4cccc(F)n4)cc3)c2Nc2ccccc2)N2C1=N[C@@H]1CCC[C@@H]12", "ΔTm", -0.49),
]

Next up:
Task: Answer with ΔTm of CC(C)(C)C(=O)NCc1ccc(Cl)c(C(=O)Nc2ncc[nH]2)c1 measured for Aurora kinase A (Homo sapiens) (UniProt O14965).
Output: -0.18
